Numbers sourced from paper PMC5700166.

Recorded binding signal values for a group of sequences are listed next.
- Study Target: GST-Hu-p50 (Homo sapiens, UniProt P19838 7-356)
- Sequence (P19838 7-356): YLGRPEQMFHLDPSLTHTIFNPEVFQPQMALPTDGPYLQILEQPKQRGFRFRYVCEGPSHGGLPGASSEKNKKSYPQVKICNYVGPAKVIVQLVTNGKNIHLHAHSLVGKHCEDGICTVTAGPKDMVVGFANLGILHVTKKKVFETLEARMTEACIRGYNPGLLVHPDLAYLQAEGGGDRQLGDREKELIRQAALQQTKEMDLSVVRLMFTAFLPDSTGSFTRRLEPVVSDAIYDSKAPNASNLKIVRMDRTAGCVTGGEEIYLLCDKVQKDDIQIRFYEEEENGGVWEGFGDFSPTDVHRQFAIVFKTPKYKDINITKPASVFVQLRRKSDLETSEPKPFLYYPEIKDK
- Method Notes: protein-binding microarray (PBM); PBM: ~300 nM protein, 6 mM HEPES pH 7.8, 80 mM KCl, 0.5 mM EDTA, 0.5 mM EGTA, 6% glycerol, 35 ng/ul poly-dIdC, 1% milk, 1 h, room temperature; high values mean tight binding
- Particulars: dsDNA, one strand shown
Please provide the amount together with its unit, number first.

| Sequence Entry | binding signal |
| --- | --- |
| CCGATTAACATCAGGGATCCCCCTGATGTTAATCGGGTCTTGATTCGCTTGACGCTGCTG | 6.45 z-score |
| CCGATTAACATCAAAAGCCCCCTTGATGTTAATCGGGTCTTGATTCGCTTGACGCTGCTG | 6.5 z-score |
| CCGATTAACATCAGAGCTCCCCCTGATGTTAATCGGGTCTTGATTCGCTTGACGCTGCTG | 4.94 z-score |

# lookup: binding signal of CCGATTAACATCAGGGAAATCCCTGATGTTAATCGGGTCTTGATTCGCTTGACGCTGCTG
7.17 z-score

---

- Study Target: GST-Co-NF-kB (Capsaspora owczarzaki, UniProt F1ARL5 200-546)
- Sequence: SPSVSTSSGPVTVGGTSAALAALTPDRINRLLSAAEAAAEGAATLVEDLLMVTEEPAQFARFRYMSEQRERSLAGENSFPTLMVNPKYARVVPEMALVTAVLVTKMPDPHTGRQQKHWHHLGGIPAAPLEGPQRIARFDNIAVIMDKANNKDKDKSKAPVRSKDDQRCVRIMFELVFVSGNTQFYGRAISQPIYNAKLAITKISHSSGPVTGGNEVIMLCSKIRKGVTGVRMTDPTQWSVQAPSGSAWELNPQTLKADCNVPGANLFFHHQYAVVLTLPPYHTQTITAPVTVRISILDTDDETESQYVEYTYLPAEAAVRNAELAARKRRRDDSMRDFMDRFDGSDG
- Method Notes: protein-binding microarray (PBM); PBM: ~300 nM protein, 6 mM HEPES pH 7.8, 80 mM KCl, 0.5 mM EDTA, 0.5 mM EGTA, 6% glycerol, 35 ng/ul poly-dIdC, 1% milk, 1 h, room temperature; high values mean tight binding
- Particulars: dsDNA, one strand shown
Recorded binding signal for the following sequences

Solved cases (10 shown):
| Sequence Entry | Study Target | Value Type | Meas Value |
| --- | --- | --- | --- |
| CCGATTAACATCAAGATATTCCCTGATGTTAATCGGGTCTTGATTCGCTTGACGCTGCTG | GST-Co-NF-kB (Capsaspora owczarzaki, UniProt F1ARL5 200-546) | binding signal | 3.05 z-score |
| CCGATTAACATCAGCAATTTCCCTGATGTTAATCGGGTCTTGATTCGCTTGACGCTGCTG | GST-Co-NF-kB (Capsaspora owczarzaki, UniProt F1ARL5 200-546) | binding signal | 3.47 z-score |
| CCGATTAACATCAGGGAATTGGATGATGTTAATCGGGTCTTGATTCGCTTGACGCTGCTG | GST-Co-NF-kB (Capsaspora owczarzaki, UniProt F1ARL5 200-546) | binding signal | 1.88 z-score |
| CCGATTAACATCAGGGGACCCCCTGATGTTAATCGGGTCTTGATTCGCTTGACGCTGCTG | GST-Co-NF-kB (Capsaspora owczarzaki, UniProt F1ARL5 200-546) | binding signal | 4.17 z-score |
| CCGATTAACATCATAAATTCCCATGATGTTAATCGGGTCTTGATTCGCTTGACGCTGCTG | GST-Co-NF-kB (Capsaspora owczarzaki, UniProt F1ARL5 200-546) | binding signal | 3.32 z-score |
| CCGATTAACATCATAAACCCCCATGATGTTAATCGGGTCTTGATTCGCTTGACGCTGCTG | GST-Co-NF-kB (Capsaspora owczarzaki, UniProt F1ARL5 200-546) | binding signal | 2.59 z-score |
| CCGATTAACATCAGGGGGGGCAATGATGTTAATCGGGTCTTGATTCGCTTGACGCTGCTG | GST-Co-NF-kB (Capsaspora owczarzaki, UniProt F1ARL5 200-546) | binding signal | 4.99 z-score |
| CCGATTAACATCAAAGGGAATTCTGATGTTAATCGGGTCTTGATTCGCTTGACGCTGCTG | GST-Co-NF-kB (Capsaspora owczarzaki, UniProt F1ARL5 200-546) | binding signal | 2.97 z-score |
| CCGATTAACATCAGGGAATCTCATGATGTTAATCGGGTCTTGATTCGCTTGACGCTGCTG | GST-Co-NF-kB (Capsaspora owczarzaki, UniProt F1ARL5 200-546) | binding signal | 1.96 z-score |
| CCGATTAACATCACTAAATCCCCTGATGTTAATCGGGTCTTGATTCGCTTGACGCTGCTG | GST-Co-NF-kB (Capsaspora owczarzaki, UniProt F1ARL5 200-546) | binding signal | 3.45 z-score |

What measured binding signal is associated with CCGATTAACATCAGATTTCTCCCTGATGTTAATCGGGTCTTGATTCGCTTGACGCTGCTG on GST-Co-NF-kB (Capsaspora owczarzaki, UniProt F1ARL5 200-546)?
2.92 z-score

Another: CCGATTAACATCAGGGGTTTCACTGATGTTAATCGGGTCTTGATTCGCTTGACGCTGCTG
2.93 z-score

---

- Study Target: GST-Nv-NF-kB (Cys allele) (Nematostella vectensis, UniProt E5G601 2-411)
- Sequence: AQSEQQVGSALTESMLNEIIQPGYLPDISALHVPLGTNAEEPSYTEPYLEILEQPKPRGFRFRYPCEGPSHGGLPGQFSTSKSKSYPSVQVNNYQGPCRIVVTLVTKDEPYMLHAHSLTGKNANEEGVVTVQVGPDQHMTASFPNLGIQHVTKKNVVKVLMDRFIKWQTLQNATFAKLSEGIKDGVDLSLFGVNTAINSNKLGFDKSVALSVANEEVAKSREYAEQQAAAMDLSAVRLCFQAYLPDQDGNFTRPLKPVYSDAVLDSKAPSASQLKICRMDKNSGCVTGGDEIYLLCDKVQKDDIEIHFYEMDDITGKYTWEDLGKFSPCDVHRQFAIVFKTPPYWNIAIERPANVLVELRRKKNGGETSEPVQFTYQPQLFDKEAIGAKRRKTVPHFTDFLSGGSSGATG
- Method Notes: protein-binding microarray (PBM); PBM: ~300 nM protein, 6 mM HEPES pH 7.8, 80 mM KCl, 0.5 mM EDTA, 0.5 mM EGTA, 6% glycerol, 35 ng/ul poly-dIdC, 1% milk, 1 h, room temperature; high values mean tight binding
- Particulars: dsDNA, one strand shown
Value Type: binding signal (z-score)
// units = z-score; emit number, no label

Use the examples below as a reference point.
| Sequence Entry | Value Type | Meas Value |
| --- | --- | --- |
| CCGATTAACATCAGGGGAATGGATGATGTTAATCGGGTCTTGATTCGCTTGACGCTGCTG | binding signal | 5.95 |
| CCGATTAACATCAGAAGTTTCCCTGATGTTAATCGGGTCTTGATTCGCTTGACGCTGCTG | binding signal | 5.91 |

I have this sequence here, CCGATTAACATCAGGGGATGTTATGATGTTAATCGGGTCTTGATTCGCTTGACGCTGCTG , and I need its recorded binding signal.
6.43

What do you get for CCGATTAACATCAGGAATTTCCCTGATGTTAATCGGGTCTTGATTCGCTTGACGCTGCTG ?
10.1

# iterate: CCGATTAACATCAGGAAGATCCCTGATGTTAATCGGGTCTTGATTCGCTTGACGCTGCTG
1.84

---

- Study Target: GST-Aq-NF-kB (Amphimedon queenslandica, UniProt A9Y5G7 2-389)
- Sequence: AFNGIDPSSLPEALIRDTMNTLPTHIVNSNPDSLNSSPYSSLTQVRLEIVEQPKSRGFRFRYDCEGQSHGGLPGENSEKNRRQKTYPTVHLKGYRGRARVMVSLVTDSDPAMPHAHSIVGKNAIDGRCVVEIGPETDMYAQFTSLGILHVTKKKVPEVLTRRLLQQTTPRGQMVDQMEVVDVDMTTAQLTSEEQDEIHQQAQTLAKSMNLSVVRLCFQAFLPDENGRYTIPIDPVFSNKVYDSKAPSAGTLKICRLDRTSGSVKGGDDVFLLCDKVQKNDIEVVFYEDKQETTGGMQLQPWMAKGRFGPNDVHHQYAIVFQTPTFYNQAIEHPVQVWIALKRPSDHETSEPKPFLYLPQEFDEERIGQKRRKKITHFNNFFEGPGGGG
- Method Notes: protein-binding microarray (PBM); PBM: ~300 nM protein, 6 mM HEPES pH 7.8, 80 mM KCl, 0.5 mM EDTA, 0.5 mM EGTA, 6% glycerol, 35 ng/ul poly-dIdC, 1% milk, 1 h, room temperature; Ap Aiptasia and Nv Nematostella (sea anemones) / Co Capsaspora / Aq Amphimedon (sponge) / Dm Drosophila / Hu human; RHD is the Rel homology domain; high values mean tight binding
- Particulars: dsDNA, one strand shown
Value Type: binding signal (z-score)
Supply the numeric figure in z-score, leaving out any unit text.

| Sequence Entry | Value Type | Quantity Unit | Meas Value |
| --- | --- | --- | --- |
| CCGATTAACATCAGGAAATTTACTGATGTTAATCGGGTCTTGATTCGCTTGACGCTGCTG | binding signal | z-score | 1.54 |

What value of binding signal has been reported for the following sequence? CCGATTAACATCAGGAAATCCCATGATGTTAATCGGGTCTTGATTCGCTTGACGCTGCTG
5.09

// query: CCGATTAACATCAGGGACGTCCCTGATGTTAATCGGGTCTTGATTCGCTTGACGCTGCTG
8.52

Could you do the same for CCGATTAACATCACGGGATTCCCTGATGTTAATCGGGTCTTGATTCGCTTGACGCTGCTG , please?
7.3

Now consider CCGATTAACATCAAGGGGAATTCTGATGTTAATCGGGTCTTGATTCGCTTGACGCTGCTG .
8.42

Please answer likewise for CCGATTAACATCAGGGGAACGCATGATGTTAATCGGGTCTTGATTCGCTTGACGCTGCTG
3.75

// next record CCGATTAACATCAGGGAGCCCCCTGATGTTAATCGGGTCTTGATTCGCTTGACGCTGCTG
7.55

Input CCGATTAACATCAGGCACTTCCCTGATGTTAATCGGGTCTTGATTCGCTTGACGCTGCTG
3.6

What do you have for CCGATTAACATCAAATAAGCCCCTGATGTTAATCGGGTCTTGATTCGCTTGACGCTGCTG ?
5.74

Entry CCGATTAACATCAAAGAGCCCCCTGATGTTAATCGGGTCTTGATTCGCTTGACGCTGCTG please
5.01
